# System: Insulin-regulated aminopeptidase (Homo sapiens)
# assay protocol: Inhibition of recombinant human IRAP at 300 uM using L-AMC as substrate preincubated for 30 mins followed by substrate addition and measured after 1 hr by fluorescence based assay
# condition summary: time 90.0 min
Assign inhibition to each entry below.
Give your result in % as a bare value.

Task: Fill in: inhibition of CN1C(=O)/C(=C/c2ccc(C(=O)O)cc2)SC1=S is ___
Result: 51

Task: Likewise for CN1C(=O)S/C(=C\c2ccc(C(=O)O)cc2)C1=O ?
Result: 47

Task: Likewise for O=C1NC(=O)/C(=C/c2ccc(C(=O)O)cc2)N1 ?
Result: 30

Task: Likewise for O=C1NC(=O)C(Cc2ccc(C(=O)O)cc2)S1 (stereo unspecified) ?
Result: 30

* * *

# measurement target: Endoplasmic reticulum aminopeptidase 1 (Homo sapiens)
# assay protocol: Inhibition of recombinant human ERAP1 using L-AMC as substrate preincubated for 30 mins followed by substrate addition and measured after 1 hr by fluorescence based assay
property measured: log10 of IC50 (log10 of the value in µM)
A difference of one corresponds to tenfold IC50; all values are log10 with IC50 in µM.

Task: Fill in: log10 of IC50 of O=C1NC(=S)S/C1=C\c1ccc(C(=O)O)cc1 is ___
Result: 1.29

Task: Likewise for Nc1[nH]cnc2nc(S)nc1-2 ?
Result: 0.34

Task: Likewise for O=c1[nH]c(=S)[nH]c(O)c1-c1ccccc1 ?
Result: 1.92

Task: Likewise for COc1ccc(Cc2c(O)nc(S)nc2O)cc1 ?
Result: 1.77

Task: Likewise for O=C(O)Cc1ccc(S(=O)(=O)N2CCCC2)s1 ?
Result: 1.43

* * *

# Tested on: Insulin-regulated aminopeptidase (Homo sapiens)
# assay protocol: Inhibition of recombinant human IRAP at 300 uM using L-AMC as substrate preincubated for 30 mins followed by substrate addition and measured after 1 hr by fluorescence based assay
# condition summary: time 90.0 min
property measured: inhibition (%)
Give your result in % as a bare value.

Task: Fill in: inhibition of O=C(O)Cc1ccc(S(=O)(=O)N2CCCCC2)s1 is ___
Result: 58

Task: Likewise for O=C(O)Cc1ccc(S(=O)(=O)N2CCCC2)s1 ?
Result: 62

Task: Likewise for O=C1NC(=O)/C(=C/c2ccc(C(=O)O)cc2)S1 ?
Result: 38

* * *

# measurement target: Endoplasmic reticulum aminopeptidase 1 (Homo sapiens, UniProt Q9NZ08)
# Sequence (Q9NZ08 whole entry): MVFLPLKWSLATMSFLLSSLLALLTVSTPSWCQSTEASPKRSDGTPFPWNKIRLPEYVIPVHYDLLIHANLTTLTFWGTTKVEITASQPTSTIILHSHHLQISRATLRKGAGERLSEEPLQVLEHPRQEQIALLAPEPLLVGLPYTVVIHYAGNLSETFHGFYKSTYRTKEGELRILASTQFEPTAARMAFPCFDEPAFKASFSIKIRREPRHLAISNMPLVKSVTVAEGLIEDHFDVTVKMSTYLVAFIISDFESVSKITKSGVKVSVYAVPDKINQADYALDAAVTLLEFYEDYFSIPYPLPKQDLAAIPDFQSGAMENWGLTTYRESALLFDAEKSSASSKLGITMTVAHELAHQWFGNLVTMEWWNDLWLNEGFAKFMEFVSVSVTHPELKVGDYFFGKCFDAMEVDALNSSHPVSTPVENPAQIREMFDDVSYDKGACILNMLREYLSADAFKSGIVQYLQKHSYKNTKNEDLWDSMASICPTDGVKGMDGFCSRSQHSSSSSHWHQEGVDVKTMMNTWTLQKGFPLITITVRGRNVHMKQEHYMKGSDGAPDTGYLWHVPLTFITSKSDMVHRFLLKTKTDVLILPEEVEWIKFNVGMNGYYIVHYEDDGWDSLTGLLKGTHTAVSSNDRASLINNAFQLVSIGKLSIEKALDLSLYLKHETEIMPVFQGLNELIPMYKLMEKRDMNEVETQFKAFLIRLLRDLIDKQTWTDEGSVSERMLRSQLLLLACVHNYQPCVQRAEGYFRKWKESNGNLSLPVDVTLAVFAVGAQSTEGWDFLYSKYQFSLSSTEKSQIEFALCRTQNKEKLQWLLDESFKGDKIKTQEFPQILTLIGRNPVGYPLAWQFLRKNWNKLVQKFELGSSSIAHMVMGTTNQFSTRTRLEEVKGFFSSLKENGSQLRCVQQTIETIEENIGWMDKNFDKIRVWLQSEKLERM
# assay protocol: Inhibition of human ERAP1 using L-SIINFEKL as substrate by LC-MS/MS method
Assign IC50 to each entry below.
Give your result in µM as a bare value.

Task: Fill in: IC50 of O=C1NC(=S)S/C1=C\c1ccc(C(=O)O)cc1 is ___
Result: 28.6

Task: Likewise for Nc1[nH]cnc2nc(S)nc1-2 ?
Result: 10.3
